- experiment.summary: In vitro cytotoxicity / potentiation of Actinomycin D in human KB epidermoid carcinoma cells, drug resistant KB V-1 (MTT)
- Type: cell-based
- condition.context: human, kb v-1 cells, 1 μM potentiating agent alone, fraction of untreated cultures, read-out: Cytotoxicity, normalized absorbance, Drug Resistant KB V-1, 0 (no Act D)
quantity.measured: viability at 96 h, 1 µM (%)
Supply the numeric figure in %, leaving out any unit text.

Worked cases, viability at 96 h, 1 µM given:
- molecule: "Brc1cccc2c1OCc1ccccc1C2=CCN1CCCC1 [(J)]"
  viability at 96 h, 1 µM [%]: 88
- molecule: "Fc1ccc2c(c1)/C(=C/CCN1CCCC1)c1ccccc1CO2 [(S)]"
  viability at 96 h, 1 µM [%]: 89

// returns reported viability at 96 h, 1 µM for input CN(C)CC/C=C1/c2ccccc2COc2cc(Br)ccc21 [(E)]
88

====

Catalogue of viability at 96 h, 1 µM readings, one per entry.
- experiment.summary: In vitro cytotoxicity / potentiation of Actinomycin D in Chinese hamster ovary cells, drug resistant C5S32 (MTT)
- Format: cell-based
- condition.context: hamster, cho c5s32 cells, 1 μM potentiating agent alone, fraction of untreated cultures (1.00), read-out: Cytotoxicity, normalized absorbance, Drug Resistant C5S32, 0 (no Act D)
Supply the numeric figure in %, leaving out any unit text.

Worked cases, viability at 96 h, 1 µM given:
- smiles: "CN(C)CC/C=C1/c2ccccc2COc2c(Br)cccc21"
  output.unit: "%"
  viability at 96 h, 1 µM: 89
- smiles: "CN(C)CC/C=C1\\c2cc(Br)ccc2COc2ccc(Br)cc21"
  output.unit: "%"
  viability at 96 h, 1 µM: 91

# context switch: different molecule, same viability at 96 h, 1 µM
// returns reported viability at 96 h, 1 µM for input CN(C)CCC=C1c2ccc(Br)cc2COc2ccccc21
92

====

- experiment.summary: in vitro
- Assay type: cell-based, Chinese hamster
- condition.context: hamster, cho auxb1 cells
quantity.measured: viability at 96 h, 10 µM
Write your answer as a measured quantity: the number, then the unit.

Worked cases, viability at 96 h, 10 µM given:
- compound: "Brc1ccc2c(c1)/C(=C\\CN1CCCC1)c1ccccc1CO2 [(F)]"
  experimental.result: "88%"
- compound: "CN(C)CC/C=C1/c2cc(Br)ccc2COc2ccccc21 [(C)]"
  experimental.result: "92%"
- compound: "Fc1ccc2c(c1)/C(=C/CCN1CCCC1)c1ccccc1CO2 [(S)]"
  experimental.result: "88%"

# context switch: different compound, same viability at 96 h, 10 µM
// returns reported viability at 96 h, 10 µM for input CCN(CC)CC/C=C1/c2ccccc2COc2ccc(Br)cc21 [(I)]
92%

Reference for the values: patent US5395610A
